Sourced from ChEMBL document CHEMBL1201862

Hi there, I'd appreciate the recorded GI50 for every entry that follows.
- Test system: Malme-3M
- protocol.details: NCI tumour cell line growth inhibition, 48 h
The source made the active and inactive calls. Cut-off read from the data, not from the text of the source: active = GI50 up to about 1.1 µM and inactive = higher.

Query: Fill in: GI50 of CCCCCCCCCCCCCCCCOc1ccc(/C=C/C2=[N+](CCCl)CCO2)cc1 is ___
Reply: > 100 µM (inactive)

Query: Would you kindly repeat that for CC(C)OC1OC(CO)C(O)CC1n1cc(F)c(=O)[nH]c1=O (stereo unspecified) ?
Reply: 86.1 µM (inactive)

Query: Would you kindly repeat that for S=C(Nc1ccc(Cl)cc1)SC1CCCCC1 ?
Reply: 28.4 µM (inactive)

Query: Would you kindly repeat that for COc1ccc(-c2cc(-c3ccncc3)nc(N)c2-c2ccc(F)cc2)cc1 ?
Reply: > 100 µM (inactive)

Query: Would you kindly repeat that for COCc1nc2c(OC)c(-c3nc4ccc(N5CCN(C)CC5)nc4[nH]3)cc(OC)c2[nH]1 ?
Reply: 20.7 µM (inactive)

Query: Would you kindly repeat that for COc1cc(C2SCC(=O)N2c2ccc(Cl)c(Cl)c2)cc(OC)c1OC (stereo unspecified) ?
Reply: > 100 µM (inactive)

Query: Would you kindly repeat that for O=C(Nc1ccn(CCO)c(=O)n1)c1ccccc1 ?
Reply: > 100 µM (inactive)

Query: Would you kindly repeat that for O=C1c2ccccc2C(=O)c2[nH]c(Cc3ccccc3F)nc21 ?
Reply: 40.7 µM (inactive)

Query: Would you kindly repeat that for CN(C)/C=N/c1nc2ncn(CCOC(=O)c3ccccc3)c2c(=O)[nH]1 ?
Reply: > 100 µM (inactive)

Query: Would you kindly repeat that for CN(C)C[C@H]1CC[C@@H](CN(C)C)C1=O ?
Reply: 3 µM (inactive)

Query: Would you kindly repeat that for Nc1nc(Cl)c(N)c(NCC2(CO)CCC2)n1 ?
Reply: > 100 µM (inactive)

====

- Tested on: KM12
- protocol.details: NCI tumour cell line growth inhibition, 48 h
The source made the active and inactive calls. Rule as the data show it: active = GI50 up to about 1.1 µM and inactive = higher.
observable: GI50

Query: Fill in: GI50 of CC(=O)NC(C=O)C(O[C@H](C)C(=O)NC(C)C(=O)NC(CCC(N)=O)C(=O)OCc1ccccc1)C(O)C(O)COC(=O)CCNc1c2ccccc2nc2cccc([N+](=O)[O-])c12 (some centres undefined) is ___
Reply: 1.91 µM (inactive)

Query: Would you kindly repeat that for CC(=O)OC1COC(N2C(=O)C(=O)c3cc(Br)ccc32)C(OC(C)=O)C1OC(C)=O (centres undefined) ?
Reply: > 100 µM (inactive)

Query: Would you kindly repeat that for CCOC(=O)NC(Nc1ccc(C(=O)OCC)cc1)(C(F)(F)F)C(F)(F)F ?
Reply: 78.9 µM (inactive)

Query: Would you kindly repeat that for Cc1[nH]c2c(c1C)S(=O)(=O)c1cc3ccccc3nc1N2 ?
Reply: 27.9 µM (inactive)

====

- Test system: IGROV-1
- protocol.details: NCI tumour cell line growth inhibition, 48 h
Active and inactive are the calls of the source. Cut-off read from the data, not from the text of the source: active = GI50 up to about 1.1 µM and inactive = higher.
Select the correct class. Options are y for active, n for inactive and nothing else.

Query: Recorded test call requested for COC(=O)c1c/c(=N\NC(=O)CC(=O)Nc2ccccc2OC)c2ccccc2o1
Reply: n

Query: Would you kindly repeat that for CNC(=S)N/N=C(C)\C(=N/NC(=S)NC)c1ccccc1 ?
Reply: n

Query: Would you kindly repeat that for Clc1ccc2c(NC3CCC(N4CCCCC4)CC3)ccnc2c1 (configuration not stated) ?
Reply: n

Query: Would you kindly repeat that for CCOC(=O)Cc1ccc(Nc2nc3cc(C(F)(F)F)ccc3nc2C(=O)OCC)cc1 ?
Reply: n

Query: Would you kindly repeat that for NS(=O)(=O)c1ccc(/N=N/c2nc3nc(O)nc(O)c3[nH]2)cc1 ?
Reply: n

Query: Would you kindly repeat that for Cn1c(=O)n2c(=O)n(C)c(=O)n2c1=O ?
Reply: n

Query: Would you kindly repeat that for C/C(=N\N=C(/[SeH])N1CC2CCC(CC2)C1)c1ccccn1 ?
Reply: y

Query: Would you kindly repeat that for Clc1ccc(-c2nn3c(CCCCCCCCc4nnc5sc(-c6ccc(Cl)cc6)nn45)nnc3s2)cc1 ?
Reply: n

Query: Would you kindly repeat that for Nc1nc(O)nc2sc3c(c12)CCCC3 ?
Reply: n

Query: Would you kindly repeat that for COc1ccc(O[C@H](CO)C[C@@H]2COC(C)(C)O2)cc1 ?
Reply: n

Query: Would you kindly repeat that for COC(=O)c1cc(NC(=O)c2cc(NC(=O)c3cc([N+](=O)[O-])cn3C)cn2C)cn1C ?
Reply: y

Query: Would you kindly repeat that for COc1ccc(C2c3cc(OC)c(OC)cc3C(Cc3ccc([N+](=O)[O-])cc3)C2c2ccc([N+](=O)[O-])cc2)cc1OC (configuration not stated) ?
Reply: n

Query: Would you kindly repeat that for C=CCO/N=C(\OC(=O)c1ccc([N+](=O)[O-])cc1)c1ccccc1 ?
Reply: n

Query: Would you kindly repeat that for COC1=CC(=O)c2c(c(COP(=O)(N(C)CCBr)N(C)CCBr)cn2C)C1=O ?
Reply: n

Query: Would you kindly repeat that for CCOC(=O)NC(Nc1cc(Cl)ccc1OC)(C(F)(F)F)C(F)(F)F ?
Reply: n

Query: Would you kindly repeat that for Cc1[nH]c2c(c1C)S(=O)(=O)c1cc3ccccc3nc1N2 ?
Reply: n

Query: Would you kindly repeat that for CN(C)C[C@H]1CC[C@@H](CN(C)C)C1=O ?
Reply: n

Query: Would you kindly repeat that for N#CC(C(=O)CCC(=O)C(C#N)c1ccccc1)c1ccccc1 (configuration not stated) ?
Reply: n

Query: Would you kindly repeat that for CCOC(=O)C12OC(OCC)(CC1(OCC)OCC)C1(CC1)C2=O (configuration not stated) ?
Reply: n

Query: Would you kindly repeat that for O=C(CCO)OCCCCCC/C=C\CCCCCC/C=C\CCCCCCCCOC(=O)CCO ?
Reply: n

Query: Would you kindly repeat that for N#CC(C#N)=NNc1ccc2cn[nH]c2c1 ?
Reply: n

Query: Would you kindly repeat that for Cn1c(=O)nc2n(-c3cccc(F)c3)c3ccccc3nc-2c1=O ?
Reply: n

====

- System: PC-3
- protocol.details: NCI tumour cell line growth inhibition, 48 h
Calls of active or inactive are those of the source. No stated cut-off is given here; in the data, active = GI50 up to about 1.1 µM and inactive = higher.
Select the correct class. Options are 1.0 = active, 0.0 = inactive and nothing else.

Query: Recorded test call requested for CN1CCN(CCCCN2c3ccccc3Sc3ccc(N=[N+]=[N-])cc32)CC1
Reply: 0.0

Query: Would you kindly repeat that for COc1ccc(-c2c(C#N)c(-c3ccccc3)n(NS(=O)(=O)c3ccccc3)c(=O)c2C#N)cc1 ?
Reply: 0.0

Query: Would you kindly repeat that for O=C(Nc1ccccc1)c1cc(S(=O)(=O)n2ccnc2O)c(S)cc1Cl ?
Reply: 0.0

Query: Would you kindly repeat that for OC1CCC(COC(c2ccccc2)(c2ccccc2)c2ccccc2)O1 (centres undefined) ?
Reply: 0.0

Query: Would you kindly repeat that for S=C1SC(=N\c2ccccc2)/C(=N/c2ccccc2)N1c1ccc2ccccc2c1 ?
Reply: 0.0

Query: Would you kindly repeat that for C=C1C(=O)O[C@@H]2C[C@@H](C)[C@@H]3C=CC(=O)[C@@]3(C)[C@@H](OC(=O)CC(=O)O[C@H]3[C@@H]4C(=C)C(=O)O[C@@H]4C[C@@H](C)[C@@H]4C=CC(=O)[C@]43C)[C@H]12 ?
Reply: 1.0

Query: Would you kindly repeat that for N=C(N)NS(=O)(=O)c1ccc(Nc2c3ccccc3nc3c(C(=O)NNCCO)cccc23)cc1 ?
Reply: 1.0

Query: Would you kindly repeat that for S=C(Nc1ccc(Cl)cc1)SC1CCCCC1 ?
Reply: 0.0

Query: Would you kindly repeat that for OC1(c2ccccc2)CC2CCC(C1)N2CCCC1(c2ccc(F)cc2)OCCO1 (centres undefined) ?
Reply: 0.0

Query: Would you kindly repeat that for C/C=C\C(CC(=O)OC)CC(=O)N(CCC1CN(S(=O)(=O)C(F)(F)F)c2ccccc21)Cc1ccc(OC)cc1OC (centres undefined) ?
Reply: 0.0

Query: Would you kindly repeat that for Cc1oc(N)c(S(=O)(=O)c2ccc(Cl)cc2)c1C ?
Reply: 0.0

Query: Would you kindly repeat that for CSC(SC)=C(C(=O)c1ccc(Cl)cc1)n1c(=O)sc2cc(Br)ccc21 ?
Reply: 0.0

Query: Would you kindly repeat that for C[C@]12CCC(O)CC1=CC[C@@H]1[C@@H]2CC[C@]2(C)C(=O)[C@H](n3ccnc3)C[C@@H]12 (some centres undefined) ?
Reply: 0.0

Query: Would you kindly repeat that for N[C@@H](CCC(=O)NC(Cc1ccccc1)C(=O)NCP(=O)(O)O)C(=O)O (some centres undefined) ?
Reply: 0.0

Query: Would you kindly repeat that for Cc1c(/N=C/C=C/c2ccccc2)c(=O)n(-c2ccccc2)n1C ?
Reply: 0.0

Query: Would you kindly repeat that for Nc1ccc(Oc2ccc(C34CC5CC(C3)CC(c3ccc(Oc6ccc(N)c(O)c6)cc3)(C5)C4)cc2)cc1O ?
Reply: 0.0

Query: Would you kindly repeat that for O=C(NC1CCN(Cc2ccccc2)CC1)c1ccccc1I ?
Reply: 0.0

Query: Would you kindly repeat that for CCOC(=O)Oc1cc2c(ccn2C)c2c1c1ccccc1n2C(=O)OCC ?
Reply: 0.0

Query: Would you kindly repeat that for C1CCNCC1.CN(C)c1ccc(/C=C2/NC(=S)NC2=O)cc1 ?
Reply: 0.0
